Target: HLA-A*24 (human)
Assay: UV peptide-exchange ELISA, yield grade
Reported property: peptide exchange yield

[[record]]
binder = "IYDDSFIRPVTF [… (SEQ ID NO: 180)]"
endpoint_result = "50 to 75%"

[[record]]
binder = "HYSQELSLLYL [… (SEQ ID NO: 158)]"
endpoint_result = "> 75%"

[[record]]
binder = "VYVGGGQIIHL [… (SEQ ID NO: 174)]"
endpoint_result = "50 to 75%"

[[record]]
binder = "TYELRYFQI [… (SEQ ID NO: 204)]"
endpoint_result = "> 75%"

[[record]]
binder = "AYLHSHALI [… (SEQ ID NO: 274)]"
endpoint_result = "> 75%"

[[record]]
binder = "VFQNFPLLF [… (SEQ ID NO: 184)]"
endpoint_result = "> 75%"

[[record]]
binder = "VYEDQVGKF [… (SEQ ID NO: 170)]"
endpoint_result = "20 to 49%"

[[record]]
binder = "PYRLIFEKF [… (SEQ ID NO: 281)]"
endpoint_result = "20 to 49%"

[[record]]
binder = "VYQGHTALL [… (SEQ ID NO: 277)]"
endpoint_result = "> 75%"

[[record]]
binder = "TYIKPISKL [… (SEQ ID NO: 273)]"
endpoint_result = "50 to 75%"

[[record]]
binder = "QYSSVFKSL [… (SEQ ID NO: 216)]"
endpoint_result = "> 75%"

[[record]]
binder = "YYLEVGKTLI [… (SEQ ID NO: 211)]"
endpoint_result = "> 75%"

[[record]]
binder = "TYSVSFPMF [… (SEQ ID NO: 195)]"
endpoint_result = "> 75%"

[[record]]
binder = "QYLENLEKL [… (SEQ ID NO: 224)]"
endpoint_result = "50 to 75%"

[[record]]
binder = "LYITEPKTI [… (SEQ ID NO: 287)]"
endpoint_result = "50 to 75%"

[[record]]
binder = "YYKSTSSAF [… (SEQ ID NO: 218)]"
endpoint_result = "50 to 75%"

[[record]]
binder = "KYMVYPQTF [… (SEQ ID NO: 267)]"
endpoint_result = "> 75%"

[[record]]
binder = "RYISDQLFTNF [… (SEQ ID NO: 278)]"
endpoint_result = "> 75%"

[[record]]
binder = "EYSLFPGQVVI [… (SEQ ID NO: 197)]"
endpoint_result = "50 to 75%"

[[record]]
binder = "KYIPYKYVI [… (SEQ ID NO: 223)]"
endpoint_result = "50 to 75%"

[[record]]
binder = "YYEVHKELF [… (SEQ ID NO: 175)]"
endpoint_result = "> 75%"

[[record]]
binder = "TYIESASEL [… (SEQ ID NO: 279)]"
endpoint_result = "50 to 75%"

[[record]]
binder = "IYSWILDHF [… (SEQ ID NO: 173)]"
endpoint_result = "> 75%"

[[record]]
binder = "RYSTGLAGNLL [… (SEQ ID NO: 221)]"
endpoint_result = "50 to 75%"

[[record]]
binder = "VHIPEVYLI [… (SEQ ID NO: 205)]"
endpoint_result = "50 to 75%"

[[record]]
binder = "KYPVEWAKF [… (SEQ ID NO: 289)]"
endpoint_result = "> 75%"

[[record]]
binder = "KYQDILETI [… (SEQ ID NO: 168)]"
endpoint_result = "> 75%"

